As shown below, each of these compounds has a reported AUC(0-t) value.
# method summary: Single dose oral pharmacokinetic study
# Format: in vivo, mice
# assay conditions: mouse, plasma; Mice oral PK @30 mg/kg (Table 4)

{"compound": "CC(C)(CC(=O)O)CC(=O)O[C@H]1CC[C@]2(C)[C@H]3CC[C@@H]4[C@H]5[C@H](C6(C)CC6)CC[C@]5(C(=O)N5CCCC5c5ncc(-c6cccnc6)[nH]5)CC[C@@]4(C)[C@]3(C)CC[C@H]2C1(C)C (some centres unmarked)", "AUC(0-t)": "136 µg·h/mL"}

// moving on: another record for AUC(0-t)
Input: Look up AUC(0-t) of C=C(C)[C@@H]1CC[C@]2(C(=O)N3CCC[C@H]3c3ncc(-c4ccc(O)cc4)[nH]3)CC[C@]3(C)[C@H](CC[C@@H]4[C@@]5(C)CC[C@H](OC(=O)C6CC(C(=O)O)C6(C)C)C(C)(C)[C@@H]5CC[C@]43C)[C@@H]12 (some centres unmarked) and report it.
Output: 334 µg·h/mL

Source of measurements: patent US9637516B2
